Reference source for all entries: patent US20250002455A1

In this section we review reported pIC50 values for a set of molecules.
- STUDY_SYSTEM: E. coli topoisomerase IV (Escherichia coli, UniProt P20083)
- Construct: purchased Inspiralis
- Sequence (P0AFI2 whole entry): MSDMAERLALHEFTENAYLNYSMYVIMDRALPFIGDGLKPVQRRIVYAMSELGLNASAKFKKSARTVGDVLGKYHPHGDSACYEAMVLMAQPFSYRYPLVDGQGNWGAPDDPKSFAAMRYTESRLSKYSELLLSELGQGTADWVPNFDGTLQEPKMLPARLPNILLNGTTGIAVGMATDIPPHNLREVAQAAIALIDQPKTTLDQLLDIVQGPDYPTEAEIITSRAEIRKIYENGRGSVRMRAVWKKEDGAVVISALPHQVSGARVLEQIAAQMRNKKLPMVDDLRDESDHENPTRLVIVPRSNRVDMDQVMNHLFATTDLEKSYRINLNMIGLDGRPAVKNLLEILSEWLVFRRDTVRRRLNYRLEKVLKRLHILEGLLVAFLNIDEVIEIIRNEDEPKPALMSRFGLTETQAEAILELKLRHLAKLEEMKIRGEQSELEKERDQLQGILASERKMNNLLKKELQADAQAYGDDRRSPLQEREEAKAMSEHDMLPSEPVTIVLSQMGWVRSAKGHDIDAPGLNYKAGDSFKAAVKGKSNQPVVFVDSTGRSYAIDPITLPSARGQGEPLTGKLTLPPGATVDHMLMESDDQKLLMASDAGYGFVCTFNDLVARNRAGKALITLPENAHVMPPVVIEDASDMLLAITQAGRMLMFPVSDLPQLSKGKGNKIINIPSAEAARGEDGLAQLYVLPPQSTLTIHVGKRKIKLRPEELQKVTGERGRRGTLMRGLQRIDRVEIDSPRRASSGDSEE
- Sequence (P20083 whole entry): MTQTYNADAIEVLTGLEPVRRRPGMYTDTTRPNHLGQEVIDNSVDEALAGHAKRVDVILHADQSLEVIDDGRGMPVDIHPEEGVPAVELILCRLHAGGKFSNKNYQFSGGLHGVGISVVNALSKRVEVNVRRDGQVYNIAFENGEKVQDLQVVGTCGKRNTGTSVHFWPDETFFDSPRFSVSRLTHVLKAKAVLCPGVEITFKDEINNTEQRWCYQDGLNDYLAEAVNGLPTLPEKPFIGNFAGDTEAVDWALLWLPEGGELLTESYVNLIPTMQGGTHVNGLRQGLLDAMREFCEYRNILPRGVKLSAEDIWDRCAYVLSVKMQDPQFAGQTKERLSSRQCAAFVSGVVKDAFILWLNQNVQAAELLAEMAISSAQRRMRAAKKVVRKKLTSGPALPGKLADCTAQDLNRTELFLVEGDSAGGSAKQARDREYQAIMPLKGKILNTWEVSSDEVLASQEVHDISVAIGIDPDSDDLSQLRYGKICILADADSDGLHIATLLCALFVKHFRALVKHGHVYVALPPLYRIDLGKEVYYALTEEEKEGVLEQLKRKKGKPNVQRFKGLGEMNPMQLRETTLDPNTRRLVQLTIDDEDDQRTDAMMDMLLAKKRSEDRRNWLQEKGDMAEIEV
- ASSAY: biochemical
- CONDITION_DETAILS: E. coli topo IV; read-out: IC50
- Procedure: Inhibitory activities for compounds of the present invention were determined on E. coli and S. aureus DNA gyrase and topoisomerase IV in an assay from Inspiralis on streptavidin-coated 96-well microtiter plates from Thermo scientific Pierce. […] After washing off the unbound oligonucleotide, the enzyme test was performed. […] Reaction solutions were incubated at 37° C. for 30 min. […]
pIC50: −log10 of the molar value.
MEASURE: pIC50

molecule=Cc1[nH]c(C(=O)Nc2ccc(C(=O)NCc3n[nH]c(=O)o3)cc2N2CCNCC2)c(Cl)c1Cl.Cl assay_result=5.53
molecule="Cc1[nH]c(C(=O)Nc2ccc(-c3nn[nH]n3)cc2N2CCCC(CN)C2)c(Cl)c1Cl.Cl (centres unmarked)" assay_result=7.22
molecule=Cc1[nH]c(C(=O)Nc2ccc(-n3nn[nH]c3=O)cc2N2CCC(N)CC2)c(Cl)c1Cl.Cl assay_result=4.94
molecule="Cc1[nH]c(C(=O)Nc2ccc(-c3noc(=O)[nH]3)cc2N2CCCC(N)C2)c(Cl)c1Cl.Cl (centres unmarked)" assay_result=6.84
molecule="Cc1[nH]c(C(=O)Nc2ccc(-c3noc(=O)[nH]3)cc2N2CCCC(CN)C2)c(Cl)c1Cl.Cl (centres unmarked)" assay_result=7.38

---

- System: K. pneumoniae ATCC 10031
- ASSAY: Microbroth dilution MIC (CLSI)
- Assay type: cell-based
- CONDITION_DETAILS: Klebsiella pneumoniae, ATCC10031; K. pneumoniae ATCC 10031; read-out: MIC
Quick list: MIC per entry.
MEASURE: MIC

compound=Cc1[nH]c(C(=O)Nc2ccc(-c3noc(=O)[nH]3)cc2N2CCN(c3ccccc3)CC2)c(Cl)c1Cl assay_result="> 64 µg/mL"
compound=Cc1[nH]c(C(=O)Nc2ccc(-n3nn[nH]c3=O)cc2N2CCN(c3ccccc3)CC2)c(Cl)c1Cl assay_result="≥ 32 µg/mL"
compound=Cc1[nH]c(C(=O)Nc2ccc(-c3n[nH]c(=O)o3)cc2NC2CCNCC2)c(Cl)c1Cl.Cl assay_result="2 µg/mL"
compound="Cc1[nH]c(C(=O)Nc2ccc(-c3n[nH]c(=O)o3)cc2N2CCOC(C)C2)c(Cl)c1Cl (stereo not drawn)" assay_result="≥ 64 µg/mL"
compound="Cc1[nH]c(C(=O)Nc2ccc(-c3noc(=O)[nH]3)cc2N2CCCC(N)C2)c(Cl)c1Cl.Cl (stereo not drawn)" assay_result="16 µg/mL"
compound="Cc1[nH]c(C(=O)Nc2ccc(-c3nn[nH]n3)cc2N2CCCC(CN)C2)c(Cl)c1Cl.Cl (stereo not drawn)" assay_result="64 µg/mL"
compound=Cc1[nH]c(C(=O)Nc2ccc(C(=O)O)cc2N2CCN(c3ccccc3)CC2)c(Cl)c1Cl assay_result="> 64 µg/mL"
compound=Cc1[nH]c(C(=O)Nc2ccc(-c3n[nH]c(=O)o3)cc2N2CC[C@H](N)C2)c(Cl)c1Cl.Cl assay_result="0.064 µg/mL"
compound=Cc1[nH]c(C(=O)Nc2ccc(-n3nn[nH]c3=O)cc2N2CCC(N)CC2)c(Cl)c1Cl.Cl assay_result="≥ 32 µg/mL"
compound=Cc1[nH]c(C(=O)Nc2ccc(-c3n[nH]c(=O)o3)cc2OC2CCNCC2)c(Cl)c1Cl.Cl assay_result="0.125 µg/mL"
compound=Cc1[nH]c(C(=O)Nc2ccc(-c3noc(=O)[nH]3)cc2N2CCNCC2)c(Cl)c1Cl assay_result="> 64 µg/mL"
compound=Cc1[nH]c(C(=O)Nc2ccc(C(=O)O)cc2NC2CCNCC2)c(Cl)c1Cl.Cl assay_result="> 64 µg/mL"
compound=Cc1[nH]c(C(=O)Nc2ccc(-c3n[nH]c(=O)o3)cc2OCc2ccccc2)c(Cl)c1Cl assay_result="≥ 32 µg/mL"
compound=Cc1[nH]c(C(=O)Nc2ccc(-c3n[nH]c(=O)o3)cc2OCCC2CCNCC2)c(Cl)c1Cl.Cl assay_result="≥ 32 µg/mL"
compound=Cc1[nH]c(C(=O)Nc2ccc(-n3nn[nH]c3=O)cc2N2CC[C@H](N)C2)c(Cl)c1Cl.Cl assay_result="≥ 32 µg/mL"
compound="Cc1[nH]c(C(=O)Nc2ccc(-c3n[nH]c(=O)o3)cc2OCC2CCCNC2)c(Cl)c1Cl.Cl (stereo not drawn)" assay_result="0.5 µg/mL"
compound=Cc1[nH]c(C(=O)Nc2ccc(-c3noc(=O)[nH]3)cc2N2CCCC2)c(Cl)c1Cl assay_result="> 64 µg/mL"
compound=Cc1[nH]c(C(=O)Nc2ccc(-c3nnn[nH]3)cc2N2CCOCC2)c(Cl)c1Cl assay_result="≥ 64 µg/mL"
compound=Cc1[nH]c(C(=O)Nc2ccc(-n3nn[nH]c3=O)cc2N2Cc3ccccc3C2)c(Cl)c1Cl assay_result="> 64 µg/mL"
compound="Cc1[nH]c(C(=O)Nc2ccc(-c3noc(=O)[nH]3)cc2N2CCCC(CN)C2)c(Cl)c1Cl.Cl (stereo not drawn)" assay_result="2 µg/mL"
compound="Cc1[nH]c(C(=O)Nc2ccc(-c3n[nH]c(=O)o3)cc2OC2CCNC2)c(Cl)c1Cl.Cl (stereo not drawn)" assay_result="≥ 32 µg/mL"

---

- System: S. aureus ATCC 43300 (MRSA)
- ASSAY: Microbroth dilution MIC (CLSI)
- Type: cell-based
- CONDITION_DETAILS: Staphylococcus aureus; S. aureus ATCC 43300 (MRSA); read-out: MIC
MEASURE: MIC

compound="Cc1[nH]c(C(=O)Nc2ccc(-c3n[nH]c(=O)o3)cc2N2CC[C@H](N)C2)c(Cl)c1Cl.Cl [Example 20]" assay_result="2 µg/mL"
compound="Cc1[nH]c(C(=O)Nc2ccc(-c3n[nH]c(=O)o3)cc2OCCC2CCNCC2)c(Cl)c1Cl.Cl [Example 29]" assay_result="≥ 32 µg/mL"
compound="Cc1[nH]c(C(=O)Nc2ccc(C(=O)O)cc2NC2CCNCC2)c(Cl)c1Cl.Cl [Example 15]" assay_result="> 64 µg/mL"
compound="Cc1[nH]c(C(=O)Nc2ccc(-c3noc(=O)[nH]3)cc2N2CCCC(N)C2)c(Cl)c1Cl.Cl (stereo not shown) [Example 2]" assay_result="> 64 µg/mL"

---

- System: S. aureus ATCC 43300 (MRSA)
- ASSAY: Microbroth dilution MIC (CLSI)
- Type: cell-based
- CONDITION_DETAILS: Staphylococcus aureus; S. aureus ATCC 43300 (MRSA); read-out: MIC
Known MIC of a selection of compounds
MEASURE: MIC (µg/mL)

compound="Cc1[nH]c(C(=O)Nc2ccc(C(=O)O)cc2N2CCN(c3ccccc3)CC2)c(Cl)c1Cl [Example 16]" units=µg/mL bound_operator=> assay_result=64
compound="Cc1[nH]c(C(=O)Nc2ccc(-c3n[nH]c(=O)o3)cc2NC2CCNCC2)c(Cl)c1Cl.Cl [Example 19]" units=µg/mL bound_operator=> assay_result=64
compound="Cc1[nH]c(C(=O)Nc2ccc(-n3nn[nH]c3=O)cc2N2CC[C@H](N)C2)c(Cl)c1Cl.Cl [Example 22]" units=µg/mL bound_operator=≥ assay_result=32
compound="Cc1[nH]c(C(=O)Nc2ccc(-n3nn[nH]c3=O)cc2N2CCC(N)CC2)c(Cl)c1Cl.Cl [Example 23]" units=µg/mL bound_operator=≥ assay_result=32
compound="Cc1[nH]c(C(=O)Nc2ccc(-c3n[nH]c(=O)o3)cc2N2CCNCC2)c(Cl)c1Cl.Cl [Example 41]" units=µg/mL bound_operator== assay_result=4
compound="Cc1[nH]c(C(=O)Nc2ccc(-c3n[nH]c(=O)o3)cc2N2CCC[C@H](N)C2)c(Cl)c1Cl.Cl [Example 18]" units=µg/mL bound_operator== assay_result=4
compound="Cc1[nH]c(C(=O)Nc2ccc(-c3noc(=O)[nH]3)cc2N2CCCC(CN)C2)c(Cl)c1Cl.Cl (stereo not shown) [Example 3]" units=µg/mL bound_operator== assay_result=4

---

- STUDY_SYSTEM: S. aureus DNA gyrase (Staphylococcus aureus)
- Construct: purchased Inspiralis
- Sequence (P20831 whole entry): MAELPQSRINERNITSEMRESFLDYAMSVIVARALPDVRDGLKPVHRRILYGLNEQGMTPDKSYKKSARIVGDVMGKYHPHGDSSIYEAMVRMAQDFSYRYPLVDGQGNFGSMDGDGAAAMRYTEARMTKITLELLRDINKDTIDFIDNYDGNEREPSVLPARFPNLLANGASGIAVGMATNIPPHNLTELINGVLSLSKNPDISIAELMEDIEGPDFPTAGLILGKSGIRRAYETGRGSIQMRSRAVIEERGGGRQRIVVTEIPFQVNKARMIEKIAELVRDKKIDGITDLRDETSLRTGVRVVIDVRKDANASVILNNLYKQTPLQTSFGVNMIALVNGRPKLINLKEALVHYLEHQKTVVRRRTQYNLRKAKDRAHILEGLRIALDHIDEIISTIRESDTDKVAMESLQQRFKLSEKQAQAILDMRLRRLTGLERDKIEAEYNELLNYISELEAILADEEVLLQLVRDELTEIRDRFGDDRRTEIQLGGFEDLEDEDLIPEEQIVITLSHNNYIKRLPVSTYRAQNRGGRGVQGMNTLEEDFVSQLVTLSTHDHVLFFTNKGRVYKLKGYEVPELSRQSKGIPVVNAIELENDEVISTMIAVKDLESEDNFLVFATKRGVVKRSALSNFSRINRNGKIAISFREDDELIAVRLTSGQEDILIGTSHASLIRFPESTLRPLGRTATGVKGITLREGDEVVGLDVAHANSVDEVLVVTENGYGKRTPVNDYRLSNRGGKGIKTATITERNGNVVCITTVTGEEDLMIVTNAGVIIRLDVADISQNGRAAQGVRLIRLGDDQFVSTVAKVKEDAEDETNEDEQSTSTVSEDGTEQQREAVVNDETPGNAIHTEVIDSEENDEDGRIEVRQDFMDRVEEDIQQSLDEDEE
- Sequence (P0A0K8 whole entry): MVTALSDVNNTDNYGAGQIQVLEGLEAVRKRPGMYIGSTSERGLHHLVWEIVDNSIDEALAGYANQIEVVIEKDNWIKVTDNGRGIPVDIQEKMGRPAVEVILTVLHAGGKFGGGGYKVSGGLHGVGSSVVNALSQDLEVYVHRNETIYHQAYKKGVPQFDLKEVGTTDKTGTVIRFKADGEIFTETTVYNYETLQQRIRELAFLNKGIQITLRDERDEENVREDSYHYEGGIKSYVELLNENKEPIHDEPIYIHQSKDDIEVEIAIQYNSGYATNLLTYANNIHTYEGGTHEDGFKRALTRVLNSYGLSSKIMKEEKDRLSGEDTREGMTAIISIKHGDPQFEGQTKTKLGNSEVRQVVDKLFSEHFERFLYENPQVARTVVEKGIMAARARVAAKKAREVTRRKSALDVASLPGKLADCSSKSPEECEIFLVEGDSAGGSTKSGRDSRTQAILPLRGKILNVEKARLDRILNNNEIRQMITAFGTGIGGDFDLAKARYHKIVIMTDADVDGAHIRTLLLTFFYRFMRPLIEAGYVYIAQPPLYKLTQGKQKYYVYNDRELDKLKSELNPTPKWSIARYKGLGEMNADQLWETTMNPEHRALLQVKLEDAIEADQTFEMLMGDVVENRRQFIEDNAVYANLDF
- ASSAY: biochemical
- Description: Inhibitory activities for compounds of the present invention were determined on E. coli and S. aureus DNA gyrase and topoisomerase IV in an assay from Inspiralis on streptavidin-coated 96-well microtiter plates from Thermo scientific Pierce. […] After washing off the unbound oligonucleotide, the enzyme test was performed. […] Reaction solutions were incubated at 37° C. for 30 min. […]
MEASURE: IC50 (nM)

molecule="Cc1[nH]c(C(=O)Nc2ccc(-c3noc(=O)[nH]3)cc2NC2CCNCC2)c(Cl)c1Cl.Cl [Example 4]" measure=IC50 units=nM assay_result=249

---

- STUDY_SYSTEM: S. aureus topoisomerase IV (Staphylococcus aureus)
- Construct: purchased Inspiralis
- Sequence (P0C1U9 whole entry): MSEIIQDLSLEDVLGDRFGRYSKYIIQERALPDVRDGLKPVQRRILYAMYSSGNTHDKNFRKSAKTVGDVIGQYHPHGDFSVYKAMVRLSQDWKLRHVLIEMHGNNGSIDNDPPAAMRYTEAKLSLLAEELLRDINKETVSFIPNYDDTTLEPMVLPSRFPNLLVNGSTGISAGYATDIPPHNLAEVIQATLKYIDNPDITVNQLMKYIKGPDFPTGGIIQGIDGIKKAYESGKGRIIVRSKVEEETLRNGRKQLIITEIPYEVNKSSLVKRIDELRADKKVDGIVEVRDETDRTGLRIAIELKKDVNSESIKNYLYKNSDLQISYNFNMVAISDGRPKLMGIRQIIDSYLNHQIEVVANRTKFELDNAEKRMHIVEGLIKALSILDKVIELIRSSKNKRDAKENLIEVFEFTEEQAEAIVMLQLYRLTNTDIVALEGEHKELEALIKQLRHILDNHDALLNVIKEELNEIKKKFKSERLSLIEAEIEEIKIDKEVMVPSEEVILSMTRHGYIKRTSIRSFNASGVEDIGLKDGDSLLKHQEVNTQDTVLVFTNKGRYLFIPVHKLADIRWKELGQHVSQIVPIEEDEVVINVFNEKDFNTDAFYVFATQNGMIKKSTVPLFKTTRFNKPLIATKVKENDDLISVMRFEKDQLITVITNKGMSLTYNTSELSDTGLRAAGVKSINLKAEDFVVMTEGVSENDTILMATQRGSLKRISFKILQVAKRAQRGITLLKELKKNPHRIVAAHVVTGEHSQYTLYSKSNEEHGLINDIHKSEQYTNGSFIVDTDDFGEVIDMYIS
- Sequence (P0C1S7 whole entry): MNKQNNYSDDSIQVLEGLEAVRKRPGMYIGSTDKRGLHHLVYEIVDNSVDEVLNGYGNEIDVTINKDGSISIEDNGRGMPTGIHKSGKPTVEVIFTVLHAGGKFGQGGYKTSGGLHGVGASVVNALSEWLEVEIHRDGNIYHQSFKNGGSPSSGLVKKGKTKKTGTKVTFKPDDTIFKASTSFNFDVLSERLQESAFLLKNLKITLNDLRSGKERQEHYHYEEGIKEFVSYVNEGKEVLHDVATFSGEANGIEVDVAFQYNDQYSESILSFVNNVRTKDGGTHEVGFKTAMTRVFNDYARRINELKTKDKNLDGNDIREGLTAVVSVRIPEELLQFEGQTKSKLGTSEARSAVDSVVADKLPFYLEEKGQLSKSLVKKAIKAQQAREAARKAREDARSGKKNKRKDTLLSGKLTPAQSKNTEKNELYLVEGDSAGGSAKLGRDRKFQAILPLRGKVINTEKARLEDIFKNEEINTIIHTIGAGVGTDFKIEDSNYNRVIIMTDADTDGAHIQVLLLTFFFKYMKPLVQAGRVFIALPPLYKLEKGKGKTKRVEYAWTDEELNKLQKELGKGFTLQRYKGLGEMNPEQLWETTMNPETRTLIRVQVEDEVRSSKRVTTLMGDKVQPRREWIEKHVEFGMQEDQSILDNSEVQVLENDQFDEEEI
- ASSAY: Topoisomerase IV inhibition assay (Inspiralis, streptavidin-coated plates)
- Type: biochemical
- CONDITION_DETAILS: S. aureus topo IV; read-out: IC50
pIC50: −log10 of the molar value.
MEASURE: pIC50

compound=Cc1[nH]c(C(=O)Nc2ccc(C(=O)NCc3n[nH]c(=O)o3)cc2N2CCNCC2)c(Cl)c1Cl.Cl study_system="S. aureus topoisomerase IV (Staphylococcus aureus)" assay_result=5.57
compound=Cc1[nH]c(C(=O)Nc2ccc(C(=O)NCC(=O)O)cc2N2CCNCC2)c(Cl)c1Cl.Cl study_system="S. aureus topoisomerase IV (Staphylococcus aureus)" assay_result=5.38
compound=Cc1[nH]c(C(=O)Nc2ccc(C(=O)NCC(=O)O)cc2N2CC[C@@H](N)C2)c(Cl)c1Cl study_system="S. aureus topoisomerase IV (Staphylococcus aureus)" assay_result=5.69
compound=Cc1[nH]c(C(=O)Nc2ccc(-c3n[nH]c(=O)o3)cc2N2CCC[C@H](N)C2)c(Cl)c1Cl.Cl study_system="S. aureus topoisomerase IV (Staphylococcus aureus)" assay_result=6.39
